Origin of measurements: PubChem BioAssay (NCI)

system: SK-MEL-2 melanoma; experiment: NCI tumour cell line growth inhibition, 48 h; in the data active = GI50 below about 0.43 µM; inactive = the rest
Possible outcomes: True = active, False = inactive

- Structure As Smiles: "COc1ccc(C(=O)Nc2ncc(Cc3ccc(Cl)cc3)s2)cc1"
  Label: "False"
- Structure As Smiles: "CCn1c(-c2nonc2N)nc2c(C#CCN)ncc(OCCCN)c21"
  Label: "False"
- Structure As Smiles: "O=C(Nc1nc2ccccc2s1)OCC(F)(F)F"
  Label: "False"
- Structure As Smiles: "O=C(c1ccc2ccccc2c1)c1c(C(F)(F)F)n([O-])c2cc(Cl)c(Cl)cc2[n+]1=O"
  Label: "False"
- Structure As Smiles: "CN1CCN(CC#Cc2cccc(C(=O)c3cnn(-c4ccc(F)cc4)c3N)c2)CC1"
  Label: "False"
- Structure As Smiles: "CC1(C)N=C(N)N=C(N)N1c1ccc(CCCCc2ccc(S(=O)(=O)F)cc2)cc1"
  Label: "False"
- Structure As Smiles: "Cc1cc([C@@H](C)Nc2ccccc2C(=O)O)c2nc(N3CCOCC3)cc(=O)n2c1"
  Label: "False"
- Structure As Smiles: "Cc1ccn2c3c(c(C(=O)O)c2c1)C(=O)c1ccccc1C3=O"
  Label: "False"
- Structure As Smiles: "O=C(Nc1cccc(-n2ccc3c(NC(=O)c4ccccc4)nccc32)c1)c1cccc(C(F)(F)F)c1"
  Label: "True"
- Structure As Smiles: "O=C(NNc1nc2c(F)cccc2n2cccc12)c1cnccn1"
  Label: "False"
- Structure As Smiles: "CCCCCCCCCCCCCC(=S)NCCCC[C@H](NC(=O)OCc1ccccc1)C(=O)Nc1ccccc1"
  Label: "False"
- Structure As Smiles: "NC(N)=N/N=C(/c1ccccc1)c1ccc(F)cc1"
  Label: "False"

---

Catalogue of TGI values
tested on: MDA-MB-231 breast; assay: NCI tumour cell line growth inhibition, 48 h

- Compound: "Cc1c(/C=N\\NC(=S)N2CCN(C(=S)N/N=C\\c3c(C)n(C)n(-c4ccccc4)c3=O)CC2)c(=O)n(-c2ccccc2)n1C"
  TGI: "73.9 µM"
- Compound: "CCCCCCCCCCCCCC(=S)NCCCC[C@H](NC(=O)OCc1ccccc1)C(=O)Nc1ccccc1"
  TGI: "> 100 µM"
- Compound: "CC(=O)OCC1OC(O[C@@H]2C[C@H]3C(C)(C)[C@H](OC(C)=O)CC[C@]3(C)[C@H]3CCC4=C([C@@H](C)C[C@@H](O)[C@H](O)C(C)(C)O)CC[C@@]4(C)[C@@]32C)C(O)C(O)C1O (stereo not given in full)"
  TGI: "23.8 µM"
- Compound: "COc1ccc2c(c1)c1c(n2CCN2CCOCC2)-c2ccccc2CC1"
  TGI: "> 100 µM"
- Compound: "O=C(/C=C/c1ccc(Cl)cc1)c1ccc(Cl)cc1Cl"
  TGI: "22.1 µM"

---

test system: M14 melanoma; assay: NCI tumour cell line growth inhibition, 48 h
Readout Type: TGI

- Compound: "COc1ccc(NC(=O)Nc2n[nH]c3ccccc23)cc1"
  Tested Target: "M14 melanoma"
  Readout Type: "TGI"
  Value: "> 100 µM"
- Compound: "N#CC1=C(N)OC2=C(CSc3ccccc32)C1c1ccc(Br)cc1 (centres undefined)"
  Tested Target: "M14 melanoma"
  Readout Type: "TGI"
  Value: "39.8 µM"
- Compound: "c1sc(NC2=NCCO2)c2c1CCCC2"
  Tested Target: "M14 melanoma"
  Readout Type: "TGI"
  Value: "> 100 µM"
- Compound: "O=C(/C=C/c1ccc(Cl)cc1)c1ccc(Cl)cc1Cl"
  Tested Target: "M14 melanoma"
  Readout Type: "TGI"
  Value: "24.2 µM"

---

tested on: BT-549 breast; assay: NCI tumour cell line growth inhibition, 48 h
Readout Type: TGI (µM)

- Molecule: "Clc1cc(N/N=C(/c2ccccc2)c2ncccn2)ncn1"
  Tested Target: "BT-549 breast"
  Value Operator: ">"
  Value: 100
- Molecule: "C=CC(=O)N[C@H]1C=C(C)c2c(-c3cnc4ccccc4c3)c3c(N)ncnc3n2C1"
  Tested Target: "BT-549 breast"
  Value Operator: "="
  Value: 41.9
- Molecule: "N#CC(=C1SCS1)[N+](=O)[O-]"
  Tested Target: "BT-549 breast"
  Value Operator: "="
  Value: 23
- Molecule: "COC(=O)C1=C(C(=O)OC)C2OC1C1C2C2(C)C(C)=C(C)C1(C)S2=O (stereo not given)"
  Tested Target: "BT-549 breast"
  Value Operator: "="
  Value: 25.1
- Molecule: "c1ccc([P+](CCNCCNCC[P+](c2ccccc2)(c2ccccc2)c2ccccc2)(c2ccccc2)c2ccccc2)cc1"
  Tested Target: "BT-549 breast"
  Value Operator: ">"
  Value: 100

---

system: SK-MEL-2 melanoma; assay: NCI tumour cell line growth inhibition, 48 h
Where a SMILES comes first, the peptide text is derived from it. The star is where a group is joined. Boc = CC(C)(C)OC(=O)*; OSu = O=C1CCC(=O)N1O*
Readout Type: TGI

- Compound: "CCOC(=O)C1=C(C)Nc2ccccc2S1"
  Value: "> 100 µM"
- Compound: "CC(C)(C)OC(=O)NC(Cc1ccc(O)cc1)C(=O)NC(CCCCN)C(=O)NC(Cc1ccc(O)cc1)C(=O)NC(CCCCN)C(=O)ON1C(=O)CCC1=O (stereo unspecified) (Boc-YKYK-OSu; configuration not given here)"
  Value: "> 100 µM"
- Compound: "Clc1cc(N/N=C(/c2ccccc2)c2ncccn2)ncn1"
  Value: "82.6 µM"
- Compound: "Cc1c(Cl)ccc2c(=O)c3cccc(CC(=O)O)c3oc12"
  Value: "> 100 µM"
- Compound: "COc1ccc(NC(=O)Nc2n[nH]c3ccccc23)cc1"
  Value: "> 100 µM"
- Compound: "COc1cc2oc(-c3ccc(O)cc3)c(OC3OC(C)C(O)C(O)C3O)c(=O)c2c(O)c1OC (stereo unspecified)"
  Value: "> 100 µM"
- Compound: "C=C1CCC2C(/C=C(\\C)CCC1O)OC(=O)C2C (stereo unspecified)"
  Value: "> 100 µM"
- Compound: "O=c1c2ccccc2[nH]c(=S)n1-c1ccc(N=Nc2cccc3c(O)cccc23)cc1"
  Value: "> 100 µM"
- Compound: "c1sc(NC2=NCCO2)c2c1CCCC2"
  Value: "> 100 µM"
- Compound: "O=C1CC(c2ccco2)C2(C(=O)NC(=O)NC2=O)C(c2ccco2)C1 (stereo unspecified)"
  Value: "> 75 µM"
- Compound: "CCOC(=O)C1=C(C)N(c2ccccc2)C2=C(C(=O)N(c3ccccc3)C2c2ccccc2)C1c1ccccc1 (stereo unspecified)"
  Value: "> 100 µM"

---

tested on: RXF 393 renal; assay: NCI tumour cell line growth inhibition, 48 h; in the data active means GI50 below about 0.43 µM; inactive means the rest
Labels: active, inactive

- Compound: "COc1cc(-n2cc(-c3ccc(Cl)c(Cl)c3)nc2SCc2ccccc2)cc(OC)c1OC"
  Label: "inactive"
- Compound: "COc1cc(C(=O)NC2c3ccccc3-c3ccccc32)c(N)cc1OCc1ccccc1"
  Label: "inactive"
- Compound: "Cc1ccc2c(C(C[N+](=O)[O-])c3cccs3)c(-c3ccccc3)[nH]c2c1 (stereo not drawn)"
  Label: "inactive"
- Compound: "CCC(C)C1NC(=O)c2nc(oc2-c2ccccc2)-c2csc(n2)-c2csc(n2)-c2nc(oc2C)-c2coc(n2)CNC(=O)C(C(C)CC)NC1=O (stereo not drawn)"
  Label: "active"
- Compound: "O=C(Nc1nc2ccccc2s1)OCC(F)(F)F"
  Label: "inactive"
- Compound: "CN=C(N)N/N=C(\\c1ccccc1)c1ccc(Br)cc1"
  Label: "active"
- Compound: "C=CC(=O)N[C@H]1C=C(C)c2c(-c3cnc4ccccc4c3)c3c(N)ncnc3n2C1"
  Label: "inactive"
- Compound: "Brc1cccc(-c2cc(-c3ccc4c(c3)OCCO4)[nH]n2)c1"
  Label: "inactive"

---

system: OVCAR-8 ovarian; experiment: NCI tumour cell line growth inhibition, 48 h
Readout Type: TGI (µM)

- Molecule: "CC[C@@H]1CC[C@@H]2[C@H](CC[C@]3(C)[C@@H](O)CC[C@@H]23)[C@H]1C(=O)O"
  Readout Type: "TGI"
  Value Operator: ">"
  Value: 100
- Molecule: "N#Cc1c(NC(=O)c2cccc(C(F)(F)F)c2)sc2c1CCC(=O)C2"
  Readout Type: "TGI"
  Value Operator: "="
  Value: 6.97
- Molecule: "Cc1cn(C2C=CC(COP(=O)(OCC3=CC(=O)c4ccccc4C3=O)N(C)CCCCCl)O2)c(=O)[nH]c1=O (stereo not given)"
  Readout Type: "TGI"
  Value Operator: "="
  Value: 26.6
- Molecule: "COc1ncc(C=C(C#N)C#N)c(OC)n1"
  Readout Type: "TGI"
  Value Operator: "="
  Value: 62
- Molecule: "Cc1cccc(N2C(=O)C3ON(C(C(N)=O)c4ccccc4)C(c4c5ccccc5c(Cl)c5ccccc45)C3C2=O)c1C (stereo not given)"
  Readout Type: "TGI"
  Value Operator: "="
  Value: 25.1
- Molecule: "CC(C)(C)c1cc(O)c(O)c(C(C)(C)C)c1"
  Readout Type: "TGI"
  Value Operator: "="
  Value: 16.4
- Molecule: "Cc1[nH]c(/C=C2\\C(=O)Nc3ccc(S(=O)(=O)Cc4c(Cl)cccc4Cl)cc32)c(C)c1C(=O)N1CCC[C@@H]1CN1CCCC1"
  Readout Type: "TGI"
  Value Operator: "="
  Value: 4.37
- Molecule: "COc1cc2oc(-c3ccc(O)cc3)c(OC3OC(C)C(O)C(O)C3O)c(=O)c2c(O)c1OC (stereo not given)"
  Readout Type: "TGI"
  Value Operator: ">"
  Value: 100
- Molecule: "COc1cc(-n2cc(-c3ccc(Cl)c(Cl)c3)nc2SCc2ccccc2)cc(OC)c1OC"
  Readout Type: "TGI"
  Value Operator: ">"
  Value: 100
- Molecule: "Cc1c(Cl)ccc2c(=O)c3cccc(CC(=O)O)c3oc12"
  Readout Type: "TGI"
  Value Operator: ">"
  Value: 100
- Molecule: "O=C(Nc1nc2ccccc2s1)OCC(F)(F)F"
  Readout Type: "TGI"
  Value Operator: ">"
  Value: 100
- Molecule: "CCOP(=O)(OCC)[C@H](O)c1ccsc1"
  Readout Type: "TGI"
  Value Operator: ">"
  Value: 100
- Molecule: "Cc1ccc(S(=O)(=O)N2CCN3C(=O)c4ccccc4C32c2ccc(F)cc2)cc1 (stereo not given)"
  Readout Type: "TGI"
  Value Operator: ">"
  Value: 100
- Molecule: "O=C1CC(C(O)CO)CC(=O)N1 (stereo not given)"
  Readout Type: "TGI"
  Value Operator: ">"
  Value: 100
- Molecule: "CCCCN(CC)c1nc(C)nc2c1c(C)c(C)n2-c1c(C)cc(C)cc1C"
  Readout Type: "TGI"
  Value Operator: "="
  Value: 28.5
- Molecule: "COc1ccc(NC(=O)Nc2n[nH]c3ccccc23)cc1"
  Readout Type: "TGI"
  Value Operator: ">"
  Value: 100
- Molecule: "CC(=O)NC1C(OCc2ccccc2)OC(CO)C(O)C1OCC(=O)N[C@@H](C)C(=O)N[C@H](CCC(=O)NCCNCCNc1c2ccccc2nc2cccc([N+](=O)[O-])c12)C(N)=O (stereo not given in full)"
  Readout Type: "TGI"
  Value Operator: ">"
  Value: 100
- Molecule: "COc1ccc(/C=C/C=C(/C#N)C(N)=S)cc1"
  Readout Type: "TGI"
  Value Operator: "="
  Value: 54.3
- Molecule: "CCOC(=O)c1sc2nc(SC)nc3c2c1N=CN3c1ccc(Br)cc1"
  Readout Type: "TGI"
  Value Operator: ">"
  Value: 100
- Molecule: "COc1cc2c(cc1OCCCCCOc1cc3c(cc1OC)C(=O)N1CCC[C@H]1C(=O)N3)N=C[C@@H]1CCCN1C2=O"
  Readout Type: "TGI"
  Value Operator: "="
  Value: 31.5
